FYI, the data here is from paper PMC7126999.

experiment: Cell viability of CrFK cells, formazan-based MTS assay; set-up: species or system feline; details: cat, CrFK cells
Measured CC50 of individual entries
observation.type: CC50

CCOP(=O)(OCC)[C@@H]1C[C@@H](C(=O)Nc2cc3c4c(cccc4c2)C(=O)N(CCN(CC)CC)C3=O)ON1C (racemic) [trans-9e]
> 100 µM
CCCN1C(=O)c2cccc3cc(NC(=O)[C@@H]4C[C@@H](P(=O)(OCC)OCC)N(C)O4)cc(c23)C1=O (racemic) [trans-9a]
> 100 µM
CCOP(=O)(OCC)[C@@H]1C[C@@H](C(=O)Nc2cc3c4c(cccc4c2)C(=O)N(CC(C)C)C3=O)ON1C [trans-9c]
> 100 µM
CCCCN1C(=O)c2cccc3cc(NC(=O)[C@H]4C[C@@H](P(=O)(OCC)OCC)N(C)O4)cc(c23)C1=O (racemic) [cis-9b]
> 100 µM

---

system: HEL cells; assay: Cytotoxicity, cell morphology; assay type: cell-based, human; conditions: Table 4 (VZV assays), exp. 1 and exp. 2
Measured Cytotoxicity Cell morphology MCC of individual entries
observation.type: Cytotoxicity Cell morphology MCC

CCCCN1C(=O)c2cccc3cc(NC(=O)[C@H]4C[C@@H](P(=O)(OCC)OCC)N(C)O4)cc(c23)C1=O (racemic) [cis-9b]
>100 μM
CCCCN1C(=O)c2cccc3cc(NC(=O)[C@@H]4C[C@@H](P(=O)(OCC)OCC)N(C)O4)cc(c23)C1=O (racemic) [trans-9b]
>100 μM
O=c1[nH]c(=O)n([C@H]2C[C@H](O)[C@@H](CO)O2)cc1/C=C/Br [Brivudin, brivudin, reference compound]
>300 μM

---

Measured EC50 of individual entries
tested on: Vaccinia virus; assay: microbe, parasite or virus in culture; type: cell-based; conditions: Orthopoxvirus vaccinia, HEL, read-out: EC50 Vaccinia virus
observation.type: EC50

CCOP(=O)(OCC)[C@@H]1C[C@H](C(=O)Nc2cc3c4c(cccc4c2)C(=O)N(CCN2CCCC2)C3=O)ON1C (racemic) [cis-9f]
45 to 100 µM
O=c1[nH]c(=O)n([C@H]2C[C@H](O)[C@@H](CO)O2)cc1/C=C/Br [Brivudin, brivudin, reference compound]
17 to 22 µM

---

system: human cervix carcinoma HeLa cells; experiment: Inhibition of proliferation of human cervix carcinoma HeLa cells; assay type: cell-based; details: read-out: IC50 HeLa; inhibit tumor cell proliferation by 50%
pIC50: −log10 of the molar value.
Measured pIC50 of individual entries
observation.type: pIC50

CCOP(=O)(OCC)[C@H]1C[C@H](CN2C(=O)c3cccc4cc(NC(C)=O)cc(c34)C2=O)ON1C (relative stereo) [trans-10d/cis-10d (93:7)]
3.95
CCOP(=O)(OCC)[C@H]1C[C@H](CN2C(=O)c3cccc4cc(N)cc(c34)C2=O)ON1C (relative stereo) [trans-10c/cis-10c (93:7)]
4.00
CCOP(=O)(OCC)[C@H]1C[C@H](CN2C(=O)c3cccc4cccc(c34)C2=O)ON1C (relative stereo) [trans-10a/cis-10a (93:7)]
4.11
CCOP(=O)(OCC)[C@H]1C[C@H](CN2C(=O)c3cccc4cc([N+](=O)[O-])cc(c34)C2=O)ON1C (relative stereo) [trans-10b/cis-10b (94:6)]
4.70
